B1: E3 ubiquitin-protein ligase NEDD4-like, residues 539 to 589; numbered along this chain, Q96PU5 (parent)
chain: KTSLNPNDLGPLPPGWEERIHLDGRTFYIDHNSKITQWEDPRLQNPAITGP

# Variants of: B1
# experiment: abundance fitness (aPCA) (normalised: wild type 0, dead -1); higher = more abundant; growth selection in yeast, the domain comes from the species named
# measurement.context: Homo sapiens
Is abundance fitness at least -0.3? Then rule met. If not, rule not met.

Completed entries (count: 3):
N7Q: rule met
W16K: rule met
P41R: rule not met

In the following, a different variant is considered.
Query block: Entry `H31L` : is its abundance fitness no less than -0.3?
Result block: rule met

Sourced from the Human Domainome abundance scans (Beltran et al. 2025)
